Each item that follows carries a reported IC50 (µM), inhibitor potency against hGOAT.
target_or_system: T1, human ghrelin O-acyltransferase (hGOAT) (human, UniProt Q96T53 1-435, limits assumed)
T1 sequence (looked up): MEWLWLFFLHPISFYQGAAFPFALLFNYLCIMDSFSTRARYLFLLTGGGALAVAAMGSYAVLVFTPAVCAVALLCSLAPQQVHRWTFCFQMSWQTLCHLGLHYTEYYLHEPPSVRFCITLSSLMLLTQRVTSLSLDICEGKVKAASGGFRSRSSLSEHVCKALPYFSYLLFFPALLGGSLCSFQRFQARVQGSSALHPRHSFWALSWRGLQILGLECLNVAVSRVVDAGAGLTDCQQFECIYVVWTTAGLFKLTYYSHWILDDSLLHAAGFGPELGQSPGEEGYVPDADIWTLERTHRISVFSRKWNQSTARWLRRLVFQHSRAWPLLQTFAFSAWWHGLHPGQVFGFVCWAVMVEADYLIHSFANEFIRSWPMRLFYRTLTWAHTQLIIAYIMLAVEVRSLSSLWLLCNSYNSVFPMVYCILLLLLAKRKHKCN
test_name: cell-based or functional assay
Non-standard residues stand in square brackets, D forms with d. No end group written: not given here. NMeF = CN[C@@H](Cc1ccccc1)C(=O)O; NMeL = CN[C@@H](CC(C)C)C(=O)O; Dap = NC[C@H](N)C(=O)O; Sar = CNCC(=O)O
The answer is to be given in µM; state only the numeric part.

GS[Dap]F[NMeL] [GSDapFN·MeL] :: 0.062
[Sar]S[Dap]FL [SarSDapFL] :: 0.088

Data request, read-out IC50 (µM), inhibitor potency against hGOAT, for [Sar]S[Dap][NMeF][NMeL] [SarSDapN·MeFN·MeL]
6

Moving on to the next binder: GS[Dap][NMeF]L [GSDapN·MeFL]
0.097

Please answer likewise for GS[Dap]FL [GSDapFL]
0.14
